- Test system: Plasmodium berghei
- assay_summary: Screen against P. berghei liver stage (PbLuc), transformed with Luciferase, at 10uM
- Format: functional, HepG2
- experimental_parameters: tested at 10 uM
Screen size: about 69,000 compounds; about 8,600 (12%) showed an effect of 50% or more. Only a selection was taken, and strong results are over-represented in it overall.
Known INHIBITION of a selection of compounds

[
  {
    "compound": "CCc1nccn1CCC(=O)N1CCCC1c1ccc(F)cc1 (stereo unspecified)",
    "INHIBITION / %": 29.4
  },
  {
    "compound": "O=C([C@H]1CCS(=O)(=O)[C@@H]2CN(CCc3ccccc3)C[C@H]12)N1CCCC1",
    "INHIBITION / %": 39.3
  },
  {
    "compound": "O=C1CCNC(=O)N1CC(=O)N1CCC1c1ccc(F)cc1 (stereo unspecified)",
    "INHIBITION / %": -14.5
  },
  {
    "compound": "NCC(=O)N1CCCCC1c1ccc(F)cc1 (stereo unspecified)",
    "INHIBITION / %": 74
  },
  {
    "compound": "CCn1nc(C)c(CCNC(=O)C2CCCN(C(C)=O)C2)c1C (stereo unspecified)",
    "INHIBITION / %": -20.2
  },
  {
    "compound": "O=C(c1ccsc1)N1CCC2(CCN(Cc3ccccn3)C2=O)C1 (stereo unspecified)",
    "INHIBITION / %": -5.08
  }
]
